- Experimental protocol: soluble on expression in E. coli; label from the status in PepcDB or PDB records
Measurement type: soluble on expression in E. coli

Worked examples follow.
[
  {
    "Seq text": "MAELSDQEMLRYNRQIILRGFDFDGQEALKDSRVLIVGLGGLGCAASQYLASAGVGNLTLLDFDTVSLSNLQRQTLHSDATVGQPKVESARDALTRINPHIAITPVNALLDDAELAALIAEHDLVLDCTDNVAVRNQLNAGCFAAKVPLVSGAAIRMEGQITVFTYQDGEPCYRCLSRLFGENALTCVEAGVMAPLIGVIGSLQAMEAIKMLAGYGKPASGKIVMYDAMTCQFREMKLMRNPGCEVCGQ",
    "soluble on expression in E. coli": "soluble"
  },
  {
    "Seq text": "MSKQIVILGAGYGGLLAALNVRKYYSKSEAQVTVINQYPTHQIITELHRLAAGNVSEQAVAMPLTKLFKGKDIDLKIATVESFSVDSKEIKLAGGTTLSYDALVVALGSKTAYFGIPGLEENSMVLKSAADANKIYKHVEDRIREYAKTKNEADATIVIGGGGLTGVELVGELADIMPKLAKSHGVNPKEVKLLLVEAGPKILPVLPDHLIERATTSLEARGVTFLTGLPVTNVAGNEIDLKDGQKLVANTFVWTGGVQGNPLIGESGLEVNRGRATVDAYLQSTSHKDVFVAGDSAVVFAPDGRPYPPTAQIAWQMGELIGYNLYAALEGKAFEEFAPVNSGTLASLGRKDAVATIGASNTPLKGLPASLMKEASNVRYLSHIKGLFSLAY",
    "soluble on expression in E. coli": "not soluble"
  },
  {
    "Seq text": "MSLRRILITGANGFVGQILCSMLRQAGHHVIALVGAESALSSHADESVRCDIRDASGLEQALCRAAPTHVVHLAAITHVPTSFNNPVLTWQTNVMGSVNLLQALQRSAPEAFVLFVSSSEVYGETFKQGTALGEDSACKPMNPYAASKLAAEAAFNEYFRQGRKGIVVRPFNHIGARQSPDFATASFARQIALIEAGKQAPQLKVGNLQAARDFLDVHDVCDAYVALLQLADEQERYPGCLNICRGEPTSLQTLLTQLMALSSSVIEVTIDPDRMRPSDIPSAFGNNSAMRCATGWKPKTKLDDTLEALLNYWRHEVISAEGHHHHHH",
    "soluble on expression in E. coli": "soluble"
  },
  {
    "Seq text": "SLAAGVLPQNEQPYSTLVNNSECVANMKGNLERPTPKYTKVGERLRHVIPGHMACSMACGGRACKYENPARWSEQEQAIKGVYSSWVTDNILAMARPSSELLEKYHIIDQFLSHGIKTIINLQRPGEHASCGNPLEQESGFTYLPEAFMEAGIYFYNFGWKDYGVASLTTILDMVKVMTFALQEGKVAIHCHAGLGRTGVLIACYLVFATRMTADQAIIFVRAKRPNSIQTRGQLLCVREFTQFLTPLRNIFSCCDPKAHAVTLPQYLIRQRHLLHGYEARLLKHVPKIIHLVCKLLLDLAE",
    "soluble on expression in E. coli": "soluble"
  },
  {
    "Seq text": "MLPETTTLQPLPSVTTIMNEPPARSPMEDYYLFNQFQYNQNPYVYPPQPVYYNTWQDASTHHFDPFQSYQIPSPYEQPIQSSMCTTPLQPLEDSRIIFDESLTKNENEQKSFVEQDSSYESSGNRFGSQKGKKIAKVIRDACCSHCSTTTTTLWRKNDEGNLECNACNLYYRHNKVKRPLSLCKQKPTTRKRRQAKKE",
    "soluble on expression in E. coli": "not soluble"
  },
  {
    "Seq text": "MSLPLIIPENIPAYELLKEHAFIMGLRRAKHQDIRPQEILIVNLMPKKIETENQILSLLANSPLQVNITLLATTSYVGKNTPFTHLEKFYKGLEEVKKHKFDGAIVTGAPVEQMDFEKVAYWEELLEIFDFLKQNVTSSMYICWGAMAALKYFYGVDKISLDKKIFGVYKHDKVSPDLLLTNLDEKVLMPHSRHSSMDEEQILALQKQGKLKILLRNKKIGSALLRDEKNIFILGHLEYFKETLHQEYVRDNFIQKAKNYYDKKGNIKYNWRSNANTIFANWLNYDVYQSTPFVLEGHHHHHH",
    "soluble on expression in E. coli": "soluble"
  },
  {
    "Seq text": "MVKMLTMDKILSKKIKVNWLGGVFWLLPNLLDLFSASKRKASVRPYQSLLELVQENFLNRYDLVHFSFNGDHDFFHFNDLQAIRSFNFTIEEEQLGAMQPDEVLLFEPVDRVTVELDQKGLSLIHSGKAFCASANYFKHWLKRVPQQDKVTLVWRKSGFELKQ",
    "soluble on expression in E. coli": "soluble"
  },
  {
    "Seq text": "MGSDKIHHHHHHMTKEINPFIVTGKIEPEYFCDRVKESERLVKSLTNGNNLVIISPRRMGKTGLIRFCYEKPEIKEEYYTFFIDILHTSSLREFTYLLGKEIYETLLPRSKKMASLFIQTVKSINGKFGFDPLTNLPTFNLELGDIDRPEYTLEEIFQCLIAADKPCIVAIDEFQQIAKYPEKNIEALLRTHIQTIENSNFIFAGSERHMMQEMFLSSSRPFYHSADILELKAIVPEIYIPFIADHFQKRKRHIEIENIEKVYRLFKGHTFYIQKTFNEAFADTPKGKECTLEIIKTAIDNLIAYNDTIFREILSNIPEKQKELLYAIAKVGEAENVTSAKFIKRYSLTSASSVQSATKKLLEKDIITEINKVYSVTDKFFGMWINTIYGNKYTL",
    "soluble on expression in E. coli": "not soluble"
  }
]

I have this sequence here, MGSDKIHHHHHHEKAVTHSESKEFKPETVKIGEDGELNIVPLYAPYQTYLKASLKADTSETDSKNYAEYVLRYIDKIGEKENFDPTTLETFFMLKATAYEQDMLNQTNELMKQHDEIKDIITKNYSASYEALPKKKATIFIAPSNLEFWSMTDPLAGVSGAAFQDSIIIQLNPNFDKEVLAYTIAHEYHHLVLNDTPELSRIDTSLDSVIFEGKADAFADQIVTDVSPPWNIPMDDTTKKHVARLIGNGEADYQEITMGNTEKDIPLWSRYSLGRDILTHHLKANPDLSIKTWTYEENHAILNGYKYQKLLE , and I need its recorded soluble on expression in E. coli.
not soluble

Report soluble on expression in E. coli for MISLIAALAVDRVIGMENAMPWNLPADLAWFKRNTLDKPVIMGRHTWESIGRPLPGRKNIILSSQPGTDDRVTWVKSVDEAIAACGDVPEIMVIGGGRVYEQFLPKAQKLYLTHIDAEVEGDTHFPDYEPDDWESVFSEFHDADAQNSHSYCFEILERR please.
soluble

Please look up its soluble on expression in E. coli: GLVPRGSHMYAELSPGTKKVYTQVRYLDDYHWEIEGSTITGIHKKSNVKVVIDVAKNREEADSLAGKDVNGIHIVAIPDNGVFYIKNGSFVLTYRYLKATLADINDHIVWSGFKVVEDNGKLVQEDVYEYLGAALVNHIKNNALAGQDYIFWQFYKCEECGKYVDIENLEAHLREHGIKLHEKSEEHYEVFELNFREGKVFDKFGGEVPMDKFSSEAREFIKEVLS
soluble
